Biological target: T1, TNFR1 (Homo sapiens, UniProt P19438)
T1 chain: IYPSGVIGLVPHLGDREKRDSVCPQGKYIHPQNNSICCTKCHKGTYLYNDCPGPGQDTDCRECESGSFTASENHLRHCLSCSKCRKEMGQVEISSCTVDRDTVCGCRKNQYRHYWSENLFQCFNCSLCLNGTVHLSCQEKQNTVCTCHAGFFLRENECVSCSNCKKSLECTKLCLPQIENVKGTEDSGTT
Test: yeast display SC50
Measured apparent Kd (screen) by item
State just the number; it will be interpreted in nM.

Known apparent Kd (screen) results, listed for orientation:
E12K (designed binder) SMEEEVEKAAKKYEKKKKEAIEKHLEKLKAKDKEAAERFLKELEEAAKEYAKDEAKTMSEEEAKRRAKKYKEKVLLSELSEEEQKEIKEAEEKLVRTILKYVEEAAK	0.446
K27N (designed binder) SMEEEVEKAAKEYEKKKKEAIEKHLENLKAKDKEAAERFLKELEEAAKEYAKDEAKTMSEEEAKRRAKKYKEKVLLSELSEEEQKEIKEAEEKLVRTILKYVEEAAK	0.653

Input: Read off the recorded apparent Kd (screen) for E61Y (designed binder) SMEEEVEKAAKEYEKKKKEAIEKHLEKLKAKDKEAAERFLKELEEAAKEYAKDEAKTMSEYEAKRRAKKYKEKVLLSELSEEEQKEIKEAEEKLVRTILKYVEEAAK
Output: 1.86

Input: Read off the recorded apparent Kd (screen) for D53V (designed binder) SMEEEVEKAAKEYEKKKKEAIEKHLEKLKAKDKEAAERFLKELEEAAKEYAKVEAKTMSEEEAKRRAKKYKEKVLLSELSEEEQKEIKEAEEKLVRTILKYVEEAAK
Output: 12.5

Input: Read off the recorded apparent Kd (screen) for K107I (designed binder) SMEEEVEKAAKEYEKKKKEAIEKHLEKLKAKDKEAAERFLKELEEAAKEYAKDEAKTMSEEEAKRRAKKYKEKVLLSELSEEEQKEIKEAEEKLVRTILKYVEEAAI
Output: 1.86
